Each recorded value in this set is attributed to the nanobody polyreactivity screen of Harvey et al. (2022).

- Assay explanation: yeast display, Sf9 membrane polyspecificity reagent, FACS + sequencing; frameworks hold sequencing errors
Measurement type: polyreactivity (PSR sort gate)

QVHLVESGGGLVQAGGSLRLSCAASGNTFYKYTMGWYRQAPGKERELVAVISSSSGSTYYADSVKGRFTISRDNAMNTVYLQMNSLKPEDTAVDYCNKRGWWDLRHDYWGQGTQVTVSS | low polyreactivity
QVQLVESGGGLVQAGGSLRLSCAASGSIFWYYAMGWYRQAPGKERELVAAISASGSSTYYADSVKGRFTISRDNAKNTVYLQMNSLKPEDTAVYDCAATYSLYNDWLYHYFPEEYDYWGQGTQVTVSS | low polyreactivity
PVQLVESGGGLVQAGGSLRLSCAASGRIFAYYAMGWYRQATGKERELVAAITRRGSTNYADSVKGRFTISGDNAKNTVYLQMNSLKQEVTAFYYCAARDAIYGSDYWGQGTQVNVSS | high polyreactivity
QVQLVESGGGLVQAGVRLRLSFAASGFTFRLYTMGWYRQAPGKERELVAAITYSGDSTYYADSVKGRFTISRDNAKNTVYLQMNSLKPEDTAVYYCAARKYYARYYWGQGTQVTVSS | high polyreactivity
QVQLVESGGGLVQAGGSLRLSCAASGFIFDGYAMGWYRQAPGKERELVAAISSVGSTYYADSVKGRFTISRDNAKNTVYLQMNSLKPEDTAVYYCARGLEERYDYWGQGTQVTVSS | low polyreactivity
QVQLVESGGGLVQAGGSLRLSCAASGRIFKENAMGWYRQAPGKERELVAAISSGASTSYADSVKGRFTISRDNAKNTVYLQMNSLKPEDTAVYYCNRGGDLYYPGWLFDYWGQGSQVTVSS | low polyreactivity
QVQLEESGGGLVQAGGSLRLSCAASGYIFQSYAMGWYRQAPGTERELVAAISRGGSTYYADSVKGRFTISRDNAMNSVYLQMNSLKPEDTAVYYCNTLTVGGFRRYYYWGQGSQVTVSS | high polyreactivity
QVQLVESGGGLDQAGGSLRLSCAASGITFYGYTMGLYRQAPGKERELVATITRGGSTYYADSVKGRFTISRDNAKNTVYLQMNSLKPEDTAVYYCAAESQYDYGVEYDYWVQGTQVTVSS | low polyreactivity
QDQLVESGGGLVQAGGSLRLSCAASGLIFTGNVMGWYRQEPGKERELVAAISRSGGRTYYADSVKGRFTISRDNAKNTVYLQMNSLKREDTAVYYCNKVSPERVYYGSYFRYYYWGQGTQVTVSS | high polyreactivity
QVQLVESGGGLVQAGGSLRLSCAASGSTFQRNAMGWYRQAPGKERELVAVITRRGASTYYADSVKGRFTISRDYEKNTVYLQMKSLKAEDTAVYYCNKVPYGRDHHLLFDYWGQGTQVTVSS | high polyreactivity

[ask] Requested field: polyreactivity (PSR sort gate). Item: QVQLVESGGGLVQAGGSLRLSCAASGIIFSGNAMGWYRQAPGKERELVAAITRGGRTYYADSVKGRFTISRDNAKNTVFFQFNSLKPEDTAVYYCGAGYPYSYREYYYWGQGSQVTVSS
[reply] high polyreactivity

----------
- Assay explanation: yeast display, Sf9 membrane polyspecificity reagent, FACS + sequencing; frameworks hold sequencing errors
Measurement type: polyreactivity (PSR sort gate)

Example results:
QVQLVESGGGLVQAGGSLRLSCAASGSTFGRYAMGWYRQAPGKERELVAAISRRGGSTYYADSVKGRFTISRDNAKNTVYLQMNSLKPEDTAVYYCATGYPIDLGREFDYWGQGIQVTVSS | high polyreactivity
QVQLVESGGGLVQAGGSLRLSCAASGSILGYYVMGWYRQAPGKERELVAAISWSSGSTYYADSVKGRFTISRDNAKNTVYLQMNSLKPEDTAVYYCNAGGVYDEFNYWGQGTQVTVSS | low polyreactivity
QVKLVESGGGLVQAGGSLSLSFAYSGITFYGNAMGWYRQAAGTERELVAAITGGGGTNYADSLKGRFTISRDNEKNTVYLQMNSLKPEDTAVYYCNRDYFVWFQRGQYKRGSSWYDYWGQGTQVTVSS | low polyreactivity
QVQLVESGGGLVQAGGSLRLSCAASGRTFRPYAMGWYRQAPGKERELVAAISQSVGSTYYADSVKGRFTISRDNAKNTVYLQMNSLKPEDTAVYYCAADRWSATHYVWYDYWGQGTQVTVSS | high polyreactivity
QVHLVESGGGLVQAGGSLRLSCAAYGIIFNSNAMGWYRQAPGKERELVAAISVSGGSTYYADSVKGRFTISRDNAKNTVYLQMNSLKPEDTAVYFCAARTGRGDRTRRYYYWGQGTKVTVSS | high polyreactivity

[ask] Which measured polyreactivity (PSR sort gate) value corresponds to QVQHVESGGGLVQAGCSLRLCCAASGSTFGGYAMGWSSQAHGNERELVAGITIAVCSTYYADSVKGRFTISRDNAKNTVYLQMNSLKPEDTAVYYCAADGLSWYNYWGPGTQVTVSS ?
[reply] high polyreactivity

[ask] // lookup polyreactivity (PSR sort gate) for QVQLVESGGGLVQAGGSLRLSCAASGGTFRYNAMGWYRQAPGKERELVAAITSVGITNYADSVKGRFTISRDNAKNTVYLQMNSLKPEDTAVYYCAKRYYRYGARSWYYPYDYWGQGTQVTVSS
[reply] high polyreactivity

[ask] Please report the recorded polyreactivity (PSR sort gate) for QVQLVESGGGLVQAGGSLRLSCAASGNIFPAYAMGWYRPAPGKERELVATISRRGGGTYYADSVKGRFTISRDNAKNTVYLQMNSLKPEDTAVYYCNGAGWTSAYDYWGQGTQVTVSS .
[reply] low polyreactivity

[ask] Given the sequence QVQLVESGGGLVQAGGSLRLTCAASGRIFKYYAMGWYRQAPGKEREFVADISRRGGSTYYADSVKGRFTISRDNAKNTVYLQMNSLKPEDTAVYYCAAQSGYIMDYWGQGTQVTVSS , what is its reported polyreactivity (PSR sort gate)?
[reply] high polyreactivity
